Experiment: Absorption and photoluminescence (quantum yield, lifetime, q)
Assay type: physicochemical
Settings: asymmetry ratio, room temperature; 10 in MeOH, 11 in DMSO
Endpoint Name: R, I(5D0 → 7F2)/I(5D0 → 7F1)
Field format: numeric only.

Worked cases, R, I(5D0 → 7F2)/I(5D0 → 7F1) given:
Molecule: CC[C@@H]1CN(CC(=O)[O-])[C@H](CC)CN(Cc2cc(C#Cc3c(OC)cc(OC)cc3OC)cc(P(C)(=O)[O-])n2)[C@H](CC)CN(CC(=O)[O-])[C@H](CC)CN1CC(=O)[O-].[Eu+3]
R, I(5D0 → 7F2)/I(5D0 → 7F1): 2.44

Molecule: COc1cc(OC)c(C#Cc2cc(CN3CC(Cc4ccccc4)N(CC(=O)[O-])CC(Cc4ccccc4)N(CC(=O)[O-])CC(Cc4ccccc4)N(CC(=O)[O-])CC3Cc3ccccc3)nc(P(C)(=O)[O-])c2)c(OC)c1.[Eu+3] (stereo not drawn)
R, I(5D0 → 7F2)/I(5D0 → 7F1): 2.69

Molecule: COc1cc(OC)c(C#Cc2cc(CN3CCN(CC(=O)[O-])CCN(CC(=O)[O-])CCN(CC(=O)[O-])CC3)nc(P(C)(=O)[O-])c2)c(OC)c1.[Eu+3]
R, I(5D0 → 7F2)/I(5D0 → 7F1): 2.52

R, I(5D0 → 7F2)/I(5D0 → 7F1) for CCC1CN(C(C)C(=O)[O-])C(CC)CN(C(C)C(=O)[O-])C(CC)CN(C(C)C(=O)[O-])C(CC)CN1Cc1cc(C#Cc2c(OC)cc(OC)cc2OC)cc(P(C)(=O)[O-])n1.[Eu+3] (stereo not drawn) is 2.66

R, I(5D0 → 7F2)/I(5D0 → 7F1) recorded for this molecule, COc1cc(OC)c(C#Cc2cc(CN3C[C@H](CC(C)C)N(CC(=O)[O-])C[C@H](CC(C)C)N(CC(=O)[O-])C[C@H](CC(C)C)N(CC(=O)[O-])C[C@@H]3CC(C)C)nc(P(C)(=O)[O-])c2)c(OC)c1.[Eu+3] , is 3.01

Recorded R, I(5D0 → 7F2)/I(5D0 → 7F1) (molecule CC[C@H]1CN(CC(=O)[O-])[C@@H](CC)CN(Cc2cc(C#Cc3c(OC)cc(OC)cc3OC)cc(P(C)(=O)[O-])n2)[C@@H](CC)CN(CC(=O)[O-])[C@@H](CC)CN1CC(=O)[O-].[Eu+3] ): 2.43

----------
Known q (Parker's) of a selection of molecules
Assay: Absorption and photoluminescence (quantum yield, lifetime, q)
Assay type: physicochemical
Conditions: from lifetimes in H2O and D2O; first value of cell
Procedure: Absorption spectra of complexes were measured with HP UV-8453 spectrophotometer. […] Spectra were recorded using a 5 spectral average sequence in the range of 570-720 nm with 0.5 nm spectral intervals and 500 μs integration time. The recorded CPL spectrum underwent a 25% Fourier transformation smoothening protocol using Origin 8.0 Software (Origin Labs) to enhance appearance (all calculations were carried out using raw spectral data). […]
Just the number.

# example entries with known answers
Molecule: CC[C@H]1CN(CC(=O)[O-])[C@@H](CC)CN(Cc2cc(C#Cc3c(OC)cc(OC)cc3OC)cc(P(C)(=O)[O-])n2)[C@@H](CC)CN(CC(=O)[O-])[C@@H](CC)CN1CC(=O)[O-].[Eu+3]
q (Parker's): 0.10
--
Molecule: CC[C@@H]1CN(CC(=O)[O-])[C@H](CC)CN(Cc2cc(C#Cc3c(OC)cc(OC)cc3OC)cc(P(C)(=O)[O-])n2)[C@H](CC)CN(CC(=O)[O-])[C@H](CC)CN1CC(=O)[O-].[Eu+3]
q (Parker's): 0.02
--
Molecule: CCC1CN(C(C)C(=O)[O-])C(CC)CN(C(C)C(=O)[O-])C(CC)CN(C(C)C(=O)[O-])C(CC)CN1Cc1cc(C#Cc2c(OC)cc(OC)cc2OC)cc(P(C)(=O)[O-])n1.[Eu+3] (stereo not shown)
q (Parker's): 0.00

The record that follows has no q (Parker's) shown yet.
Reported q (Parker's) for COc1cc(OC)c(C#Cc2cc(CN3CCN(CC(=O)[O-])CCN(CC(=O)[O-])CCN(CC(=O)[O-])CC3)nc(P(C)(=O)[O-])c2)c(OC)c1.[Eu+3] was 0.06

----------
Assay: TSA/SA isomer ratio of lanthanide complexes by 1H NMR
Type: physicochemical
Settings: 25° C., 400 MHz, pD 7.0, aqueous solution
From the text: In aqueous solution, the ratio of TSA/SA isomers of Eu(III) and Yb(III) complexes in DOTA-like systems can be easily determined by ^1H NMR as two well-defined sets of six resonances are observed for the diastereotopic protons in CH2CO and NCH2CH2N.^13 Although the Gd(III) complexes cannot be analyzed by NMR, their ratio of isomers are expected to be similar to those of the Eu(III) and Yb(III) complexes because the ionic radius of Gd(III) is similar to the ionic radius of Eu(III) and Yb(III). […]
We begin with a simple list: items and their reported isomer ratio of TSA/SA.

Compound: C[C@H]1CN(CC(=O)[O-])[C@@H](C)CN(CC(=O)[O-])[C@@H](C)CN(CC(=O)[O-])[C@@H](C)CN1CC(=O)[O-].[Eu+3] [[EuL1]^−]
isomer ratio of TSA/SA: 0.75

Compound: CC[C@H]1CN(CC(=O)[O-])[C@@H](CC)CN(CC(=O)[O-])[C@@H](CC)CN(CC(=O)[O-])[C@@H](CC)CN1CC(=O)[O-].[Eu+3] [[EuL2]^−]
isomer ratio of TSA/SA: 1.27

Compound: O=C([O-])CN1CC(Cc2ccccc2)N(CC(=O)[O-])CC(Cc2ccccc2)N(CC(=O)[O-])CC(Cc2ccccc2)N(CC(=O)[O-])CC1Cc1ccccc1.[Eu+3] (stereo not shown) [[EuL4]^−]
isomer ratio of TSA/SA: 13.50

Compound: C[C@H]1CN(CC(=O)[O-])[C@@H](C)CN(CC(=O)[O-])[C@@H](C)CN(CC(=O)[O-])[C@@H](C)CN1CC(=O)[O-].[Yb+3] [[YbL1]^−]
isomer ratio of TSA/SA: 0.28

Compound: CC(C)C[C@H]1CN(CC(=O)[O-])[C@@H](CC(C)C)CN(CC(=O)[O-])[C@@H](CC(C)C)CN(CC(=O)[O-])[C@@H](CC(C)C)CN1CC(=O)[O-].[Eu+3] [[EuL3]^−]
isomer ratio of TSA/SA: 6.52

So, CC[C@H]1CN(CC(=O)[O-])[C@@H](CC)CN(CC(=O)[O-])[C@@H](CC)CN(CC(=O)[O-])[C@@H](CC)CN1CC(=O)[O-].[Yb+3] [[YbL2]^−] ? Its isomer ratio of TSA/SA was 0.93

----------
Assay: Circularly polarized luminescence (CPL), dissymmetry factor glum
Assay type: physicochemical
Details: DMSO; wavelength in parentheses in the cell
// reported glum ΔJ = 1 (λ) DMSO per item

Compound: CCC1CN(C(C)C(=O)[O-])C(CC)CN(C(C)C(=O)[O-])C(CC)CN(C(C)C(=O)[O-])C(CC)CN1Cc1cc(C#Cc2c(OC)cc(OC)cc2OC)cc(P(C)(=O)[O-])n1.[Eu+3] (stereo not shown)
glum ΔJ = 1 (λ) DMSO: −0.17 (588)
//
Compound: CC[C@@H]1CN(CC(=O)[O-])[C@H](CC)CN(Cc2cc(C#Cc3c(OC)cc(OC)cc3OC)cc(P(C)(=O)[O-])n2)[C@H](CC)CN(CC(=O)[O-])[C@H](CC)CN1CC(=O)[O-].[Eu+3]
glum ΔJ = 1 (λ) DMSO: +0.17 (591)
//
Compound: COc1cc(OC)c(C#Cc2cc(CN3C[C@H](CC(C)C)N(CC(=O)[O-])C[C@H](CC(C)C)N(CC(=O)[O-])C[C@H](CC(C)C)N(CC(=O)[O-])C[C@@H]3CC(C)C)nc(P(C)(=O)[O-])c2)c(OC)c1.[Eu+3]
glum ΔJ = 1 (λ) DMSO: −0.11 (591)

Kindly review the next compound as well.
// glum ΔJ = 1 (λ) DMSO lookup, compound = CC[C@H]1CN(CC(=O)[O-])[C@@H](CC)CN(Cc2cc(C#Cc3c(OC)cc(OC)cc3OC)cc(P(C)(=O)[O-])n2)[C@@H](CC)CN(CC(=O)[O-])[C@@H](CC)CN1CC(=O)[O-].[Eu+3] , result: −0.18 (591)

----------
Reported q (Horrocks') values are given for each entry in this list.
Assay: Absorption and photoluminescence (quantum yield, lifetime, q)
Format: physicochemical
Settings: from lifetimes in H2O and D2O; second value of cell
Give the figure by itself; no unit, no explanation.

Memo: CC[C@@H]1CN(CC(=O)[O-])[C@H](CC)CN(Cc2cc(C#Cc3c(OC)cc(OC)cc3OC)cc(P(C)(=O)[O-])n2)[C@H](CC)CN(CC(=O)[O-])[C@H](CC)CN1CC(=O)[O-].[Eu+3] , reported q (Horrocks'): 0.05
